Measured IC50, listed per entry for reference.
system: Plasmodium falciparum; experiment: Antiplasmodial activity against Plasmodium falciparum 3D7 infected in human red blood cells assessed as parasite growth inhibition incubated for 72 hrs by SYBR Green I staining based analysis; type: functional, organism-based, Red blood cell; conditions: 3D7, Erythrocyte
Your answer should be a plain number; it is taken to be in nM.

O=C(N/N=C/c1cnn(-c2ccccc2)n1)c1ccncc1 2800
O/N=C/c1cn(-c2cc(Cl)ccc2Cl)nn1 2800
CCOCc1cn(-c2cc(Cl)cc(Cl)c2)nn1 2800
Clc1cc(Cl)cc(-n2cc(/C=N/Nc3c(Cl)cccc3Cl)nn2)c1 5560
Clc1ccc(N/N=C/c2cn(-c3ccc(Cl)cc3)nn2)cc1 2800

// switching to the query compound
Need IC50, item O=C(N/N=C/c1cn(-c2ccc(Cl)cc2)nn1)c1ccncc1
2800

====

tested on: Plasmodium falciparum; assay: Antiplasmodial activity against Plasmodium falciparum infected in O+ RBCs assessed as parasite growth inhibition incubated for 36 to 40 hrs by JSB staining based analysis; format: functional, organism-based, RBC; conditions: Plasmodium falciparum, Erythrocyte; read-out: IC50
property-measured: IC50 (nM)
Please reply with the bare figure in nM and do not write the unit itself.

Sample answers from the record:
O=C(Cn1cc(CSc2ccc(Cl)cc2)nn1)OCc1ccc(Cl)cc1 208
O=C(Cn1cc(CSc2ccc3ccccc3c2)nn1)OCc1ccc([N+](=O)[O-])cc1 207
O=C(Cn1cc(CSc2ccc(Cl)cc2)nn1)OCc1ccccc1 209

Value lookup for IC50; key = Cc1ccc(COC(=O)Cn2cc(CSc3ccc(C)cc3)nn2)cc1
204

# lookup: IC50 of O=C(Cn1cc(CSc2ccc(Br)cc2)nn1)OCc1ccc(Cl)cc1
203

Field request: IC50 | item: Cc1ccc(COC(=O)Cn2cc(CSc3ccc(Br)cc3)nn2)cc1
178

Looking for the measured IC50 of O=C(Cn1cc(CSc2ccc(Br)cc2)nn1)OCc1ccc([N+](=O)[O-])cc1 , can you help?
183

====

target: UniProt P46925; experiment: Inhibition of Plasmodium falciparum Plm-II using DABCYL-Glu-Arg-Nle-Phe-Leu-Ser-Phe-Pro-EDANS as substrate preincubated for 30 mins followed by substrate addition measured after 8 to 15 mins by FRET assay
Sequence (P46925 whole entry): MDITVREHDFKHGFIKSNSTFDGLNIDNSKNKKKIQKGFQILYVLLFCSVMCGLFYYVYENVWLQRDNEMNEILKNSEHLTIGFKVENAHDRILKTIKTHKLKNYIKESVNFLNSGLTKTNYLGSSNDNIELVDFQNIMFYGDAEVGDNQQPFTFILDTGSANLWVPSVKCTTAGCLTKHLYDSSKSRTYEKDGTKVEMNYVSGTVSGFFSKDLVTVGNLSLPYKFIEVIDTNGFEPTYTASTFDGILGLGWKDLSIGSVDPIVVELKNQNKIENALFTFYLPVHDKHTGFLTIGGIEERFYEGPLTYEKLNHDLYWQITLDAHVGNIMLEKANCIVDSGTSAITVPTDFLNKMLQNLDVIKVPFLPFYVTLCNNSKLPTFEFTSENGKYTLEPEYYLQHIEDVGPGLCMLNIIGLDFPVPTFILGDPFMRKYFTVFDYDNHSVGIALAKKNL
property-measured: pIC50
Convention used: pIC50 is expressed as -log10 of the molar concentration.

// pIC50 lookup, key: CCCCCc1ccc(-n2nnc(CCN(CC)CC)c2Cc2ccc(-c3ccc(OC)cc3)cc2)cc1
6.22

====

assay: Cytotoxicity against human Huh-7 cells incubated for 48 hrs by MTT assay; type: toxicity, cell-based
property-measured: CC50 at 48 h (µg/mL)
Form entry: value (µg/mL) — number only.

Can you look up the measured CC50 at 48 h of Cc1ccc(OCc2cn(-c3ccc(S(N)(=O)=O)cc3)nn2)cc1 for me?
7.5

====

system: Plasmodium falciparum; assay: Antiplasmodial activity against CQ-resistant Plasmodium falciparum RKL-9 at trophozoite stage infected in human O+ RBCs assessed as parasite growth inhibition by SYBR Green I staining based analysis; format: functional, organism-based, RBC; details: RKL-9, Erythrocyte
property-measured: IC50 (µM)
Please state the figure in µM; there is no need to write the unit.

Cc1ccccc1C(=O)/C=C/c1cn(Cc2cn(-c3ccnc4cc(Cl)ccc34)nn2)c2ccccc12 2.7

Consider the record given below.
API: value(readout=IC50, system=Plasmodium falciparum) for record COc1ccccc1C(=O)/C=C/c1cn(Cc2cn(-c3ccnc4cc(Cl)ccc34)nn2)c2ccccc12
3.5
